Read-out: ABC Transporter (ABCC2), ABCC2 (gene 1244)
Assay: LTEA_HepaRG_ABCC2: Life Technologies and Expression Analysis (LTEA) Assay for ABC Transporter (ABCC2) using HepaRG (AID 2283464)
Details: mRNA level, 48 h; actives raise or lower the signal
The source made the active and inactive calls. The calls were made as follows: active = hit-call score of the fitted dose curve at least 0.9, where 1 is the maximum; inactive = score below 0.9.

{"molecule": "CNC(=O)ON=CC(C)(C)SC", "outcome": "inactive"}
{"molecule": "COC(=O)N(OC)c1ccccc1COc1ccn(-c2ccc(Cl)cc2)n1", "outcome": "inactive"}
{"molecule": "CCOC(=O)CC(SP(=S)(OC)OC)C(=O)OCC (stereo not drawn)", "outcome": "inactive"}

---

Assay: CCTE_Shafer_MEA_dev_network_spike_peak: CCTE's Neural Network Formation Assay for Mean Number of Electrodes in Network Spike, Shafer Lab (AID 2284049)
Activity calls are given as the source filed them. The calls were made as follows: active = hit-call score of the fitted dose curve at least 0.9, where 1 is the maximum; inactive = score below 0.9.
Labels: active, inactive

{"molecule": "C=CCC1=C(C)[C@@H](OC(=O)[C@@H]2[C@@H](C=C(C)C)C2(C)C)CC1=O", "answerLabel": "active"}
{"molecule": "CC(C)(C)c1ccc(CSc2cnn(C(C)(C)C)c(=O)c2Cl)cc1", "answerLabel": "active"}
{"molecule": "COc1ccc(C(c2ccc(OC)cc2)C(Cl)(Cl)Cl)cc1", "answerLabel": "active"}
{"molecule": "CNC(=O)ON=CC(C)(C)SC", "answerLabel": "inactive"}
{"molecule": "CCCCOC(=O)c1ccccc1C(=O)OCCCC", "answerLabel": "active"}
{"molecule": "N#Cc1nn(-c2c(Cl)cc(C(F)(F)F)cc2Cl)c(N)c1S(=O)C(F)(F)F (stereo not drawn)", "answerLabel": "inactive"}
{"molecule": "CCOc1cc(Oc2ccc(C(F)(F)F)cc2Cl)ccc1[N+](=O)[O-]", "answerLabel": "active"}
{"molecule": "CCCCNC(=O)n1c(NC(=O)OC)nc2ccccc21", "answerLabel": "active"}

---

Molecular target: human Beta-secretase (BACE), BACE1 (gene 23621) (UniProt P56817)
Sequence (P56817 whole entry, looked up): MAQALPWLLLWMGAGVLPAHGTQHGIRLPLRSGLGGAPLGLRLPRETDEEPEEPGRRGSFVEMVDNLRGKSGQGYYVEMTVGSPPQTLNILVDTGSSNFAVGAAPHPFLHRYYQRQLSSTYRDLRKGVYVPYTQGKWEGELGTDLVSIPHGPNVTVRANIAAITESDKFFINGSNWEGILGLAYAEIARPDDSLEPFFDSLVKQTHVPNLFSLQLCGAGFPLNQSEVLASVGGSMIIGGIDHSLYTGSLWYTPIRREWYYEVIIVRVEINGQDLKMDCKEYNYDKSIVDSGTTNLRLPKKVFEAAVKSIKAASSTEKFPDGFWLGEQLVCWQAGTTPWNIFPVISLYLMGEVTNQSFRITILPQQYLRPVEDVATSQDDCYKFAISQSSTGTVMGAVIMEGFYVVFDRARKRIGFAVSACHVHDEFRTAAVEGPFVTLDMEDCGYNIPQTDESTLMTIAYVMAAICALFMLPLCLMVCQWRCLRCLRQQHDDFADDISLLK
Experiment: NVS_ENZ_hBACE: NovaScreen (NVS) Enzymatic Assay for human Beta-secretase (BACE) (AID 2283140);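 also: hits are inhibitors that reduce fluorescent substrate signal versus DMSO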
Results filed as inconclusive are left out. Active and inactive are the calls of the source. How the source made its calls: active means hit-call score of the fitted dose curve at least 0.9, where 1 is the maximum; inconclusive means response in the unintended direction; inactive means score below 0.9.
Labels: Yes for active, No for inactive

{"compound": "CCCCOC(=O)c1ccccc1C(=O)OCCCC", "answerLabel": "No"}
{"compound": "C#CCOS(=O)OC1CCCCC1Oc1ccc(C(C)(C)C)cc1 (stereo not given)", "answerLabel": "Yes"}
{"compound": "CCOP(=S)(OCC)SCn1c(=O)oc2cc(Cl)ccc21", "answerLabel": "Yes"}
{"compound": "O=C(Nc1ccccc1)Nc1ccnc(Cl)c1", "answerLabel": "Yes"}
{"compound": "Cc1ccc(-c2c(Cl)nc(C#N)n2S(=O)(=O)N(C)C)cc1", "answerLabel": "No"}

---

Each entry below carries its reported AC50.
Read-out: CD38, CD38 (gene 952)
Assay: BSK_SAg_CD38: BioMAP Diversity Plus: SAg Assay for CD38 Biomarker Activity (AID 2283087)
Settings: primary human HUVEC with PBMC; actives raise or lower the signal
Method: BSK_SAg is a cell-based, multiplexed-readout assay that uses umbilical vein endothelium and peripheral blood mononuclear cells, a human vascular primary cell co-culture, with measurements taken at 24 hours after chemical dosing in a 96-well plate.BSK_SAg_CD38 is one of 10 assay component(s) measured or calculated from the BSK_SAg assay. […] This assay endpoint, BSK_SAg_CD38, was analyzed with bidirectional fitting relative to DMSO as the negative control and baseline of activity. […]
Calls of active or inactive are those of the source. Rule for the calls: active = hit-call score of the fitted dose curve at least 0.9, where 1 is the maximum; inactive = score below 0.9.

{"recordSmiles": "CC(C)(C)c1ccc(CSc2cnn(C(C)(C)C)c(=O)c2Cl)cc1", "AC50": "2.4 µM (active)"}
{"recordSmiles": "CO/C=C(/C(=O)OC)c1ccccc1Oc1cc(Oc2ccccc2C#N)ncn1", "AC50": "20 µM (active) [middle of 4 runs]"}
{"recordSmiles": "CCOP(=S)(OCC)SCn1c(=O)oc2cc(Cl)ccc21", "AC50": "30.4 µM (active)"}
{"recordSmiles": "COc1ccc(C(c2ccc(OC)cc2)C(Cl)(Cl)Cl)cc1", "AC50": "14.9 µM (active)"}
